Assay: Probe fluorescence ratio response to linolenic acid relative to ADIFAB2
Type: binding
Settings: response relative to ADIFAB2

molecule | DR/DR LNA
72G 73W (protein, listed as Rattus norvegicus, PEPTIDE (1)...(131) wild-type rat intestinal fatty acid binding protein) AFDGTWKVDRNENYEKFMEKMGINVVKRKLGAHDNLKLTITQEGNKFTVKESSNFRNIDVVFELGVDFAYSGWDGTELTGTWTMEGNKLVGKFKRVDNGKELIAVREISGNELIQTYTYEGVEAKRIFKKE | 3.637
73I 72A (protein, listed as Rattus norvegicus, PEPTIDE (1)...(131) wild-type rat intestinal fatty acid binding protein) AFDGTWKVDRNENYEKFMEKMGINVVKRKLGAHDNLKLTITQEGNKFTVKESSNFRNIDVVFELGVDFAYSAIDGTELTGTWTMEGNKLVGKFKRVDNGKELIAVREISGNELIQTYTYEGVEAKRIFKKE | 0.099
106F, 72A (protein, listed as Rattus norvegicus, PEPTIDE (1)...(131) wild-type rat intestinal fatty acid binding protein) AFDGTWKVDRNENYEKFMEKMGINVVKRKLGAHDNLKLTITQEGNKFTVKESSNFRNIDVVFELGVDFAYSAADGTELTGTWTMEGNKLVGKFKRVDNGKELIAVFEISGNELIQTYTYEGVEAKRIFKKE | 0.706
31Q, 72A (protein, listed as Rattus norvegicus, PEPTIDE (1)...(131) wild-type rat intestinal fatty acid binding protein) AFDGTWKVDRNENYEKFMEKMGINVVKRKLQAHDNLKLTITQEGNKFTVKESSNFRNIDVVFELGVDFAYSAADGTELTGTWTMEGNKLVGKFKRVDNGKELIAVREISGNELIQTYTYEGVEAKRIFKKE | 1.494
18V 31F 55L 72A (protein, listed as Rattus norvegicus, PEPTIDE (1)...(131) wild-type rat intestinal fatty acid binding protein) AFDGTWKVDRNENYEKFVEKMGINVVKRKLFAHDNLKLTITQEGNKFTVKESSNLRNIDVVFELGVDFAYSAADGTELTGTWTMEGNKLVGKFKRVDNGKELIAVREISGNELIQTYTYEGVEAKRIFKKE | 1.180
31K2, 72A (protein, listed as Rattus norvegicus, PEPTIDE (1)...(131) wild-type rat intestinal fatty acid binding protein) AFDGTWKVDRNENYEKFMEKMGINVVKRKLKAHDNLKLTITQEGNKFTVKESSNFRNIDVVFELGVDFAYSAADGTELTGTWTMEGNKLVGKFKRVDNGKELIAVREISGNELIQTYTYEGVEAKRIFKKE | 0.90

// provenance: patent US20060257938A1
